# Tested on: Crotalus adamanteus venom PLA2
# Assay name: venom sPLA2 inhibition IC50, varespladib and CroFab alone and together
# Assay type: biochemical
# Reported conditions: varespladib and CroFab ® together, read-out: Varespladib IC50 (nM) With CroFab ®
Measurement label: IC50 (nM)
Answers are plain numbers, in nM.

Reported IC50 for CCc1c(C(=O)C(N)=O)c2c(OCC(=O)O)cccc2n1Cc1ccccc1 [Varespladib] : what is it?
0.05

====

# System: E. carinatus venom MP
# Assay name: HTS for inhibitors of E. carinatus venom MP
# Type: biochemical
# Reported conditions: compounds approximately 10 μM/well
Where a SMILES comes first, the peptide text is derived from it.
Measurement label: % Effect on E. carinatus venom MP (%)
Numbers only, in %.

Some solved entries appear below for comparison.
Molecule: NC[C@H](O)c1ccc(O)c(O)c1 [Norepinephrine]
System under test: E. carinatus venom MP
Measurement label: % Effect on E. carinatus venom MP
Quantity unit: %
Test result: 28

Molecule: COC(=O)[C@H](Cc1ccccc1)NC(=O)[C@@H](N)CC(=O)O [Aspartame] (H-Asp-Phe-OMe)
System under test: E. carinatus venom MP
Measurement label: % Effect on E. carinatus venom MP
Quantity unit: %
Test result: 6

Molecule: CCOC(=O)c1ccc(OC(=O)CCCCCNC(=N)N)cc1 [gabexate]
System under test: E. carinatus venom MP
Measurement label: % Effect on E. carinatus venom MP
Quantity unit: %
Test result: 23

Now take the following molecule into account.
Fill in the blank: the reported % Effect on E. carinatus venom MP of N=C(N)c1ccc2cc(OC(=O)c3ccc(N=C(N)N)cc3)ccc2c1 is ____.
28
